Target: UniProt:P49841
Sequence (P49841 whole entry, species assumed): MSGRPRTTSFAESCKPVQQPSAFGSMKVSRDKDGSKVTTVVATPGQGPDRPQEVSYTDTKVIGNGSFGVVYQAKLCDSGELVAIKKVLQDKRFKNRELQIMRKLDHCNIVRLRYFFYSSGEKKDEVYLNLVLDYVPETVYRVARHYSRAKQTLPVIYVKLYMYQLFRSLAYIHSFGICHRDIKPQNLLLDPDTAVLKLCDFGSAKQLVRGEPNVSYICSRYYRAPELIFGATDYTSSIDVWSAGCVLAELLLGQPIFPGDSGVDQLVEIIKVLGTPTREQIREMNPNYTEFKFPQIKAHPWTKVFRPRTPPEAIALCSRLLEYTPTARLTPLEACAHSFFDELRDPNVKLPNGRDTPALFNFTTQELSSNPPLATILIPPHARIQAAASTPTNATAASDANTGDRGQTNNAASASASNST
Test: FRET-based coupled-enzyme protein kinase inhibition assay
Assay type: biochemical
Conditions: compound at 10 µM, 1% DMSO
quantity-kind: inhibition at 10 µM (%)
Answer format: numeric, % implied, no suffix.

Nc1ncnc2c1ncn2[C@@H]1O[C@H](COC(=O)N2CCC(Cc3ccc(F)cc3)C2)[C@@H](O)[C@H]1O (stereo partly shown) [Compound C66] :: 1
Nc1ncnc2c1ncn2[C@@H]1O[C@H](COC(=O)N2CCN(C(=O)N3CCOCC3)CC2)[C@@H](O)[C@H]1O [Compound C89] :: -2

Prompt: Give me measured inhibition at 10 µM, please, for this molecule: C[C@@H](NC(=O)OC[C@H]1O[C@@H](n2cnc3c(N)ncnc32)[C@H](O)[C@@H]1O)c1ccc(Cl)cc1 [Compound C4]
Response: 8

Prompt: Indicate its recorded inhibition at 10 µM; the molecule in question is CS(=O)(=O)N1CC2(CCN(C(=O)OC[C@H]3O[C@@H](n4cnc5c(N)ncnc54)[C@H](O)[C@@H]3O)CC2)c2ccccc21 [Compound C98]
Response: -1

Prompt: Give reported inhibition at 10 µM value for Nc1ncnc2c1ncn2[C@@H]1O[C@H](COC(=O)N2CCN(CCc3ccccc3)CC2)[C@@H](O)[C@H]1O [Compound C26]
Response: 6

Prompt: Identify measured inhibition at 10 µM corresponding to Nc1ncnc2c1ncn2[C@@H]1O[C@H](COC(=O)NC[C@H](O)CO)[C@@H](O)[C@H]1O [Compound C8]
Response: 21

Reference source for all entries: patent EP3212201B1
